Test system Sodium-dependent dopamine transporter (Homo sapiens, UniProt Q01959), AC50 listed for each of the compounds. Further: assay procedure not described here.

Look over these answered cases.
OC[C@H]1O[C@@H](c2ccc(F)c(Cc3cc4ccccc4s3)c2)[C@H](O)[C@@H](O)[C@@H]1O | 7.69 µM
CC(C)(C)NC[C@H](O)COc1cccc2c1CCCC2=O | > 30 µM
CC(=O)O[C@]1(C(C)=O)CC[C@H]2[C@@H]3C=C(C)C4=CC(=O)CC[C@@H]4[C@H]3CC[C@@]21C [NOMEGESTROL ACETATE] | > 30 µM
CCn1cc(C(=O)O)c(=O)c2cc3c(cc21)OCO3 | > 30 µM
CC1=C(/C=C/C(C)=C/C=C/C(C)=C/C(=O)O)C(C)(C)CCC1 | > 30 µM

Working through the 7 compounds below one at a time, give AC50 for each.
1. O=C(O)COc1ccc(C(=O)c2cccs2)c(Cl)c1Cl
2. Cc1cc(N)c2ccccc2[n+]1CCCCCCCCCC[n+]1c(C)cc(N)c2ccccc21
3. CN(C)CCOC(c1ccccc1)c1ccc(Br)cc1 (configuration not stated) [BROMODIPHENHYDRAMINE]
4. Cc1onc(-c2ccccc2)c1-c1ccc(S(N)(=O)=O)cc1
5. CC(=O)Oc1cc(C(F)(F)F)ccc1C(=O)O
6. CCN(CC)C(=S)S
7. FC(F)(F)c1ccc(CNc2ccc(Cc3c[nH]c4ncc(Cl)cc34)cn2)cn1

["> 30 µM", "0.89 µM", "0.757 µM", "> 30 µM", "> 30 µM", "> 30 µM", "9.3 µM"]

For the 2 compounds below, give their AC50 values.
1. C=CCN1CC[C@]23CCCC[C@H]2[C@H]1Cc1ccc(O)cc13
2. CN1CCC(=C2c3ccccc3Sc3ccccc32)CC1

1: > 30 µM; 2: 11.2 µM
